# method description: Dissolution of ASA in buffers and solvent systems (clear solution or suspension)
# Format: physicochemical
# study conditions: N,N-dimethylacetamide (NNDMA), organic solvent or mixture, thermodynamic from solid; read-out: concentration at which aspirin was found to be soluble in NNDMA
property measured: solubility

Problem: Find the recorded solubility belonging to CC(=O)Oc1ccccc1C(=O)O and report it.
Solution: ≤ 500 mg/mL
